kon values by entry
Target: T1, recombinant human IL-23R/Fc chimera (R&D Systems) (human, UniProt Q5VWK5 24-355)
T1 construct: Bought; also called rhIL23RFc
T1 sequence (looked up): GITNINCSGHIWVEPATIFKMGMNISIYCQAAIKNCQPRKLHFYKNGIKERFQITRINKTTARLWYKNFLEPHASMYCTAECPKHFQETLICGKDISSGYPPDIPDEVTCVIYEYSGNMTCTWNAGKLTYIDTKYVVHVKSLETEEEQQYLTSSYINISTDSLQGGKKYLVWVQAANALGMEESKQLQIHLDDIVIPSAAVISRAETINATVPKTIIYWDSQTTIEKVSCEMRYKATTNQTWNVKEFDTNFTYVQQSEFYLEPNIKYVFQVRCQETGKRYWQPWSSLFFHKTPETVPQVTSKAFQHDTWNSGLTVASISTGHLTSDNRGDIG
Assay: SPR
Field: numeric (M⁻¹ s⁻¹). Do not append units.

Worked cases, answers included:
105-08-1A4 ATRIMER complex (designed binder) EPPTQKPKKIVNAKKDVVNTKMFEELKSRLDTLAQEVALLKEQQALQTVCLKGTKVHMKCFLAFTQTKTFHEASEDCISRGGTLSTPQTGSENDALYEYLRQSVGNEAEIWLGLNGSAVTNTWVDMTGARIAYKNWETEITAQPDGGFGYFGENCAVLSGAANGKWFDKRCRDQLPYICQFGIV :: 250000
001-89.C12E monomeric CTLD (designed binder, C-terminal tag not specified) ALQTVCLKGTKVHMKCFLAFTQTKTFHEASEDCISRGGTLSTPQTGSENDALYEYLRQSVGNEAEIWLGLNWTKRTALWVDMTGARIAYKNWETEITAQPDGGMFGMGENCAVLSGAANGKWFDKRCRDQLPYICQFGIV :: 41600

Item under review: 101-54-4B3 ATRIMER complex (designed binder) EPPTQKPKKIVNAKKDVVNTKMFEELKSRLDTLAQEVALLKEQQALQTVCLKGTKVHMKCFLAFTQTKTFHEASEDCISRGGTLSTPQTGSENDALYEYLRQSVGNEAEIWLGLNGSALTNTWVDMTGARIAYKNWELPPPGHPQGGFGVFGENCAVLSGAANGKWFDKRCRDQLPYICQFGIV . Reported kon?
1.13e+06

And then 101-54-4A12 ATRIMER complex (designed binder, also called 101-54-4Al2) EPPTQKPKKIVNAKKDVVNTKMFEELKSRLDTLAQEVALLKEQQALQTVCLKGTKVHMKCFLAFTQTKTFHEASEDCISRGGTLSTPQTGSENDALYEYLRQSVGNEAEIWLGLNGSRRSGVWVDMTGARIAYKNWEPPGPAHPQGGFGVFGENCAVLSGAANGKWFDKRCRDQLPYICQFGIV , what is it?
1.24e+06
